The reported measurements were obtained from patent US20250368745A1.

Quick reference: Kd of the listed items.
- Target: T1, human IL-18BP (human, UniProt O95998 31-194)
- T1 construct: UniProt printed as 095998; also called hIL-18BP
- T1 sequence: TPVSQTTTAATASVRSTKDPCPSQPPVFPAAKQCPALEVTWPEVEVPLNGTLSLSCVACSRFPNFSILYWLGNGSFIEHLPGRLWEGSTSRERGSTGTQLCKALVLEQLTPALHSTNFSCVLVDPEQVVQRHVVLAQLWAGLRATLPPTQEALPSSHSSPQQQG
- Assay notes: BLI, apparent KD
Numbers only here, please. The scale is nM.

Binder | Kd [nM]
SA301a HC-I51S (antibody, name in Kabat numbering, V domains shown, IgG1 kappa) VH: QVQLQESGPGLVKPSQTLSLTCTVSGYSITSDYNSHWIRQPPGKGLEWIGYSHYSGSTNYNPSLKSRVTISRDTSKNQFSLKLSSVTAADTAVYYCARNYGSIYVNYFDYWGQGTLVTVSS VL: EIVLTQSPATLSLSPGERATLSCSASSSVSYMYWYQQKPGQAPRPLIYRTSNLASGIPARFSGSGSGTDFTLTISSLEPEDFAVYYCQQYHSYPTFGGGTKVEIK | 0.57
SA301a HC-S54L (antibody, name in Kabat numbering, V domains shown, IgG1 kappa) VH: QVQLQESGPGLVKPSQTLSLTCTVSGYSITSDYNSHWIRQPPGKGLEWIGYIHYLGSTNYNPSLKSRVTISRDTSKNQFSLKLSSVTAADTAVYYCARNYGSIYVNYFDYWGQGTLVTVSS VL: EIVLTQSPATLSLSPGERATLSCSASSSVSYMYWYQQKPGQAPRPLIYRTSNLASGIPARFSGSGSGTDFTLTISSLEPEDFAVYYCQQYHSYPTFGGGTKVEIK | 2.64
SA301a HC-Y53A (antibody, name in Kabat numbering, V domains shown, IgG1 kappa) VH: QVQLQESGPGLVKPSQTLSLTCTVSGYSITSDYNSHWIRQPPGKGLEWIGYIHASGSTNYNPSLKSRVTISRDTSKNQFSLKLSSVTAADTAVYYCARNYGSIYVNYFDYWGQGTLVTVSS VL: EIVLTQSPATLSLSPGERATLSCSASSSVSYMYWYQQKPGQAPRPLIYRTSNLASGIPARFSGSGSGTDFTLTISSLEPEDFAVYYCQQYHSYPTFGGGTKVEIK | 2.6
SA301a HC-I51K (antibody, name in Kabat numbering, V domains shown, IgG1 kappa) VH: QVQLQESGPGLVKPSQTLSLTCTVSGYSITSDYNSHWIRQPPGKGLEWIGYKHYSGSTNYNPSLKSRVTISRDTSKNQFSLKLSSVTAADTAVYYCARNYGSIYVNYFDYWGQGTLVTVSS VL: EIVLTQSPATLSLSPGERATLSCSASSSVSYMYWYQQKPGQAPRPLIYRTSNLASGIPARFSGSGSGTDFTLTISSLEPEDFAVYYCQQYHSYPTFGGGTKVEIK | 0.49

Here is another binder to look at.
I have this binder here, SA301a HC-Y50S (antibody, name in Kabat numbering, V domains shown, IgG1 kappa) VH: QVQLQESGPGLVKPSQTLSLTCTVSGYSITSDYNSHWIRQPPGKGLEWIGSIHYSGSTNYNPSLKSRVTISRDTSKNQFSLKLSSVTAADTAVYYCARNYGSIYVNYFDYWGQGTLVTVSS VL: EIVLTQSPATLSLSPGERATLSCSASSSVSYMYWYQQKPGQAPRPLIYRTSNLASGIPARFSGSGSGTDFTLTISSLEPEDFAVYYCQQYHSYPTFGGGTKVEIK , and I need its recorded Kd.
2.17
